Overview of reported TL1A Binding Level (Late) across a group of binders:
Biological target: T1, human TL1A extracellular domain with N-terminal HIS and FLAG tag (human, UniProt O95150 72-251)
T1 construct: the whole entry is named; also called TNFSF15
T1 sequence: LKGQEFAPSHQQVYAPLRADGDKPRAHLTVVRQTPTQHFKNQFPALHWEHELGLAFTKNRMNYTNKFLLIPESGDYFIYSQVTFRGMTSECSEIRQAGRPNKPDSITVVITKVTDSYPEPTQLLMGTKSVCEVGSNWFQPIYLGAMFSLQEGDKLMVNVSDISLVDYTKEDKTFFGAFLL
Test: SPR Run 7, antibody on Protein A, TL1A 5 ug/mL, timepoint 220
Output spec: scalar in RU, unitless text.

1) 320-508 (antibody, human IgG1, name in Kabat numbering, V domains shown, full-length human IgG1, lambda) VH: QVQLVQSGAEVKKPGASVKVSCKASGYTFTSYDINWVRQAPGQGLEWMGWLNDNSGNTGYAQKFQGRVTMTADRSTSTAYMELSSLRSEDTAVYYCAREVPETAAFEYWGQGTLVTVSS VL: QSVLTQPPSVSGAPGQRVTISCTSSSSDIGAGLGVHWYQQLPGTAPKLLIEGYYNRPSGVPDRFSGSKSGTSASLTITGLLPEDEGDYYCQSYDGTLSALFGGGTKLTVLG: 12
2) 320-530 (antibody, human IgG1, name in Kabat numbering, V domains shown, full-length human IgG1, lambda) VH: QVQLVQSGAEVKKPGASVKVSCKASGYTFTSYDINWVRQAPGQGLEWMGWLNPNYGNTGYAQKFQGRVTMTADRSTSTAYMELSSLRSEDTAVYYCAREVPETAAFEYWGQGTLVTVSS VL: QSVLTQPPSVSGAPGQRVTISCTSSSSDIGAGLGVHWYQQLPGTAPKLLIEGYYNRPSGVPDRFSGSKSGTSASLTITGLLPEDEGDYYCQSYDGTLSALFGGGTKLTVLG: 67
3) 320-550 (antibody, human IgG1, name in Kabat numbering, V domains shown, full-length human IgG1, lambda) VH: QVQLVQSGAEVKKPGASVKVSCKASGYTFTSYDINWVRQAPGQGLEWMGWLNPNSGNQGYAQKFQGRVTMTADRSTSTAYMELSSLRSEDTAVYYCAREVPETAAFEYWGQGTLVTVSS VL: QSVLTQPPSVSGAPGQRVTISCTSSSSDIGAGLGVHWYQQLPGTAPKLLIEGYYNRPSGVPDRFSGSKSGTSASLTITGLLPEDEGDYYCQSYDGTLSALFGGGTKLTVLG: 103

Could you share which TL1A Binding Level (Late) value was measured for 320-540 (antibody, human IgG1, name in Kabat numbering, V domains shown, full-length human IgG1, lambda) VH: QVQLVQSGAEVKKPGASVKVSCKASGYTFTSYDINWVRQAPGQGLEWMGWLNPNSGSTGYAQKFQGRVTMTADRSTSTAYMELSSLRSEDTAVYYCAREVPETAAFEYWGQGTLVTVSS VL: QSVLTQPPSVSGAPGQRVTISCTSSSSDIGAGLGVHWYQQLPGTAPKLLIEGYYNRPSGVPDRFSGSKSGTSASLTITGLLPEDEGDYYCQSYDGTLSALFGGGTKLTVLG ? 92

Name the reported TL1A Binding Level (Late) value associated with the binder 320-510 (antibody, human IgG1, name in Kabat numbering, V domains shown, full-length human IgG1, lambda) VH: QVQLVQSGAEVKKPGASVKVSCKASGYTFTSYDINWVRQAPGQGLEWMGWLNKNSGNTGYAQKFQGRVTMTADRSTSTAYMELSSLRSEDTAVYYCAREVPETAAFEYWGQGTLVTVSS VL: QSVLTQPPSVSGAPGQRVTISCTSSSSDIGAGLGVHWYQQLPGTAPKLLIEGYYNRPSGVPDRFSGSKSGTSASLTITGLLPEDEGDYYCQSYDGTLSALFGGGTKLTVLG 33

Requested read-out: TL1A Binding Level (Late). Entry: 320-535 (antibody, human IgG1, name in Kabat numbering, V domains shown, full-length human IgG1, lambda) VH: QVQLVQSGAEVKKPGASVKVSCKASGYTFTSYDINWVRQAPGQGLEWMGWLNPNSHNTGYAQKFQGRVTMTADRSTSTAYMELSSLRSEDTAVYYCAREVPETAAFEYWGQGTLVTVSS VL: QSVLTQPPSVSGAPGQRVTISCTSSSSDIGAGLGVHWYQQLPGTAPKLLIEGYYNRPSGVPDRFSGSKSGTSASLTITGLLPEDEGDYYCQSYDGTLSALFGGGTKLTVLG 115

Can you share its TL1A Binding Level (Late)? I mean this binder: 320-564 (antibody, human IgG1, name in Kabat numbering, V domains shown, full-length human IgG1, lambda) VH: QVQLVQSGAEVKKPGASVKVSCKASGYTFTSYDINWVRQAPGQGLEWMGWLNPNSGNTWYAQKFQGRVTMTADRSTSTAYMELSSLRSEDTAVYYCAREVPETAAFEYWGQGTLVTVSS VL: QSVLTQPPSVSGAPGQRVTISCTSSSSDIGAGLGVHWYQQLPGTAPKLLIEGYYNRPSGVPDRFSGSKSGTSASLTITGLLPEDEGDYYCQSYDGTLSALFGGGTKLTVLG 67
